Hello, the source for this data is ChEMBL document CHEMBL1132408, in case you need it.

tested on: A2058; assay: The compound was tested in vitro for antiproliferative activity against A2058 tumor cell lines; type: functional, Homo sapiens; design: concentration or dose not given beside the values
Checkbox rule: Inhibition lower than 70% = T; Inhibition not lower than 70% = F.

The examples below pair each entry with its known result.
>>> assigned_class("CCCCCCCCCCC(N)C(=O)N[C@H](Cc1ccccc1)C(=O)N[C@@H](CSCNC(C)=O)C(=O)N[C@H](C(=O)N[C@H](Cc1c[nH]c2ccccc12)C(=O)N[C@@H](CCCCN)C(=O)N[C@@H](CSCNC(C)=O)C(=O)N[C@H](C(=O)NC1OC(C(N)=O)C(O)C(O)C1O)[C@@H](C)O)c1ccc(O)cc1 (stereo partly drawn)")
"F"
>>> assigned_class("CC(=O)NCSC[C@H](NC(=O)[C@H](N)Cc1ccccc1)C(=O)N[C@H](C(=O)N[C@H](Cc1c[nH]c2ccccc12)C(=O)N[C@@H](CCCCN)C(=O)N[C@@H](CSCNC(C)=O)C(=O)N[C@H](C(=O)NC1OC(C(N)=O)C(O)C(O)C1O)[C@@H](C)O)c1ccc(O)cc1 (stereo partly drawn)")
"F"
>>> assigned_class("CCCCCCCCCCC(N)C(=O)NCC(=O)NCC(=O)N[C@H](Cc1ccccc1)C(=O)N[C@H]1CSSC[C@@H](C(=O)N[C@H](C(N)=O)[C@@H](C)O)NC(=O)[C@H](CCCCN)NC(=O)[C@@H](Cc2c[nH]c3ccccc23)NC(=O)[C@H](c2ccc(O)cc2)NC1=O (stereo partly drawn)")
"T"
>>> assigned_class("CCCCCCCCCCCCCCCCC(N)C(=O)N[C@H](Cc1ccccc1)C(=O)N[C@@H](CSCNC(C)=O)C(=O)N[C@H](C(=O)N[C@H](Cc1c[nH]c2ccccc12)C(=O)N[C@@H](CCCCN)C(=O)N[C@@H](CSCNC(C)=O)C(=O)N[C@H](C(N)=O)[C@@H](C)O)c1ccc(O)cc1 (stereo partly drawn)")
"T"
>>> assigned_class("C[C@@H](O)[C@H](NC(=O)C1CSSCC(NC(=O)[C@H](N)Cc2ccccc2)C(=O)N[C@@H](c2ccc(O)cc2)C(=O)NC(Cc2c[nH]c3ccccc23)C(=O)N[C@@H](CCCCN)C(=O)N1)C(N)=O (single isomer, unassigned)")
"F"
>>> assigned_class("CCCCCCCCCCCCCCCCCCC(N)C(=O)N[C@H](Cc1ccccc1)C(=O)N[C@@H](CSCNC(C)=O)C(=O)N[C@H](C(=O)N[C@H](Cc1c[nH]c2ccccc12)C(=O)N[C@@H](CCCCN)C(=O)N[C@@H](CSCNC(C)=O)C(=O)N[C@H](C(N)=O)[C@@H](C)O)c1ccc(O)cc1 (stereo partly drawn)")
"T"

Next item in the queue.
Is Inhibition of CCCCCCCCCCCCC(NC(=O)CCC(=O)NC1OC(O)C(O)C(O)C1O)C(=O)N[C@H](Cc1ccccc1)C(=O)N[C@H]1CSSC[C@@H](C(=O)N[C@H](C(N)=O)[C@@H](C)O)NC(=O)[C@H](CCCCN)NC(=O)[C@@H](Cc2c[nH]c3ccccc23)NC(=O)[C@H](c2ccc(O)cc2)NC1=O (stereo partly drawn) strictly below 70%? F
